system: NCI-H1618 multicellular tumor spheroid viability; test: Anticancer human tumor NCI-H1618 cell line growth inhibition; settings: second compound 30 pM; first compound 0.316 µM; active means viability on the fitted dose curve at most 10% of control; inactive means the rest;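 further: spheroids exposed to agents for 7 days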
Classes used: active, inactive

>>> label_value("COc1ccc([C@@H](O)c2cc(-c3ncnc4cc(N5CCOCC5)ccc34)c(F)cc2Cl)nn1 + COc1cc2c(cc1O)CCNC21CSC2c3c(OC(C)=O)c(C)c4c(c3C(COC1=O)N1C(O)C3Cc5cc(C)c(OC)c(O)c5C(C21)N3C)OCO4")
"inactive"
>>> label_value("COc1cc(C)[nH]c(=O)c1CN1CCc2c(Cl)cc(C(OC)C3COC3)c(Cl)c2C1=O (stereo unspecified) + COc1cc2c(cc1O)CCNC21CSC2c3c(OC(C)=O)c(C)c4c(c3C(COC1=O)N1C(O)C3Cc5cc(C)c(OC)c(O)c5C(C21)N3C)OCO4")
"inactive"
>>> label_value("[2H]c1nc(C)nc([2H])c1-c1cc(NC[C@@H](C)c2cccc3c(C(=O)NC)ccnc23)ncn1 + COc1cc2c(cc1O)CCNC21CSC2c3c(OC(C)=O)c(C)c4c(c3C(COC1=O)N1C(O)C3Cc5cc(C)c(OC)c(O)c5C(C21)N3C)OCO4")
"inactive"
>>> label_value("CC(C)n1c(=O)n(C)c2cnc3cc(F)c(-c4ccc(OCCCN5CCCCC5)nc4)cc3c21 + COc1cc2c(cc1O)CCNC21CSC2c3c(OC(C)=O)c(C)c4c(c3C(COC1=O)N1C(O)C3Cc5cc(C)c(OC)c(O)c5C(C21)N3C)OCO4")
"inactive"
>>> label_value("CC1COCCN1c1cc(-c2ccnn2C)c2ccnc(-c3ccn[nH]3)c2n1 (stereo unspecified) + COc1cc2c(cc1O)CCNC21CSC2c3c(OC(C)=O)c(C)c4c(c3C(COC1=O)N1C(O)C3Cc5cc(C)c(OC)c(O)c5C(C21)N3C)OCO4")
"active"
>>> label_value("Cc1cc(C)c(CNC(=O)c2cc(-c3ccc(CN4CCOCC4)cc3)cc3c2cnn3C2CCCC2)c(=O)[nH]1 + COc1cc2c(cc1O)CCNC21CSC2c3c(OC(C)=O)c(C)c4c(c3C(COC1=O)N1C(O)C3Cc5cc(C)c(OC)c(O)c5C(C21)N3C)OCO4")
"inactive"

* * *

test system: NCI-H1618 multicellular tumor spheroid viability; test: Anticancer human tumor NCI-H1618 cell line growth inhibition; conditions: second compound 3.16 µM; first compound 0.0949 µM; active compounds read low;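 further: spheroids exposed to agents for 7 days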
measure: viability, T/C (%)

>>> test_result("CNCc1ccc(-c2cc(-c3nc(-c4ccc(S(=O)(=O)C(C)C)cc4)cnc3N)on2)cc1 + Cn1nnc2c(C(N)=O)ncn2c1=O")
21.4
>>> test_result("O=C(c1cc(Cc2n[nH]c(=O)c3ccccc23)ccc1F)N1CCN(C(=O)C2CC2)CC1 + Cn1nnc2c(C(N)=O)ncn2c1=O")
19.4
>>> test_result("Cn1ncnc1[C@H]1c2n[nH]c(=O)c3cc(F)cc(c23)N[C@@H]1c1ccc(F)cc1 + Cn1nnc2c(C(N)=O)ncn2c1=O")
21.4
>>> test_result("Cc1sc2c(c1C)C(c1ccc(Cl)cc1)=NC(CC(=O)Nc1ccc(O)cc1)c1nnc(C)n1-2 (centres undefined) + Cn1nnc2c(C(N)=O)ncn2c1=O")
49.1

* * *

tested on: NCI-H1618 multicellular tumor spheroid viability; assay: Anticancer human tumor NCI-H1618 cell line growth inhibition; settings: second compound 94.9 pM; first compound 3 µM; active = viability on the fitted dose curve at most 10% of control; inactive = the rest;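 further: spheroids exposed to agents for 7 days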
Classes used: active, inactive

>>> label_value("Cn1ncnc1[C@H]1c2n[nH]c(=O)c3cc(F)cc(c23)N[C@@H]1c1ccc(F)cc1 + COc1cc2c(cc1O)CCNC21CSC2c3c(OC(C)=O)c(C)c4c(c3C(COC1=O)N1C(O)C3Cc5cc(C)c(OC)c(O)c5C(C21)N3C)OCO4")
"active"
>>> label_value("Cc1sc2c(c1C)C(c1ccc(Cl)cc1)=NC(CC(=O)Nc1ccc(O)cc1)c1nnc(C)n1-2 (centres undefined) + COc1cc2c(cc1O)CCNC21CSC2c3c(OC(C)=O)c(C)c4c(c3C(COC1=O)N1C(O)C3Cc5cc(C)c(OC)c(O)c5C(C21)N3C)OCO4")
"active"
>>> label_value("CNCc1ccc(-c2cc(-c3nc(-c4ccc(S(=O)(=O)C(C)C)cc4)cnc3N)on2)cc1 + COc1cc2c(cc1O)CCNC21CSC2c3c(OC(C)=O)c(C)c4c(c3C(COC1=O)N1C(O)C3Cc5cc(C)c(OC)c(O)c5C(C21)N3C)OCO4")
"active"
>>> label_value("O=C(c1cc(Cc2n[nH]c(=O)c3ccccc23)ccc1F)N1CCN(C(=O)C2CC2)CC1 + COc1cc2c(cc1O)CCNC21CSC2c3c(OC(C)=O)c(C)c4c(c3C(COC1=O)N1C(O)C3Cc5cc(C)c(OC)c(O)c5C(C21)N3C)OCO4")
"inactive"
